target: F-actin
experiment: cosedimentation with F-actin through a sucrose cushion, SDS-PAGE
property label: Kd (nM)
Answer in nM, number only, no unit symbol.

May I ask what Kd has been recorded for "MacMARCKS" ? 53
